# Species on record: Homo sapiens
# Measurement Protocol: Relative potency for human estrogen and progesterone receptors
Result Type: Ratio

A selection of reference data follows.
[
  {
    "Mol": "CC1=CC(C)(C)Nc2ccc3c(c21)/C(=C/c1ccccc1)Oc1c(F)cccc1-3",
    "Ratio": "> 1000"
  },
  {
    "Mol": "CC1=CC(C)(C)Nc2ccc3c(c21)/C(=C/c1ccccc1)Oc1ccc(F)cc1-3",
    "Ratio": "> 1000"
  },
  {
    "Mol": "CC1=CC(C)(C)Nc2ccc3c(c21)/C(=C/c1ccncc1C)Oc1ccc(F)cc1-3",
    "Ratio": 255
  }
]

Challenge: Output measured Ratio for this item: CC1=CC(C)(C)Nc2ccc3c(c21)/C(=C/c1ccco1)Oc1ccc(F)cc1-3
Response given: 749

Challenge: Give a short answer stating reported Ratio for CCc1ccccc1/C=C1\Oc2ccc(F)cc2-c2ccc3c(c21)C(C)=CC(C)(C)N3 .
Response given: > 1000

Challenge: Provide only the value of recorded Ratio for CC1=CC(C)(C)Nc2ccc3c(c21)/C(=C/c1ccccc1C)Oc1ccc(F)cc1-3
Response given: > 1000

Challenge: Please look at this compound and report its Ratio: CC1=CC(C)(C)Nc2ccc3c(c21)/C(=C/c1ncccc1C)Oc1ccc(F)cc1-3
Response given: > 1000

====

# Test System: Progesterone receptor (Homo sapiens)
# Measurement Protocol: Percent agonistic effect towards human progesterone receptor in T47D breast cancer cells
# Format: functional, cell-based
Result Type: Efficacy (%)
# unit: % | format: bare number

Would you please look over these solved cases?
[
  {
    "Mol": "CC1=CC(C)(C)Nc2ccc3c(c21)/C(=C/c1ncccc1C)Oc1ccc(F)cc1-3",
    "Efficacy (%)": 49
  },
  {
    "Mol": "CC1=CC(C)(C)Nc2ccc3c(c21)/C(=C/c1ccccc1F)Oc1ccc(F)cc1-3",
    "Efficacy (%)": 47
  },
  {
    "Mol": "CC1=CC(C)(C)Nc2ccc3c(c21)/C(=C/c1ccccn1)Oc1ccc(F)cc1-3",
    "Efficacy (%)": 40
  },
  {
    "Mol": "CC1=CC(C)(C)Nc2ccc3c(c21)/C(=C/c1ccccc1C)Oc1ccc(F)cc1-3",
    "Efficacy (%)": 49
  },
  {
    "Mol": "CC1=CC(C)(C)Nc2ccc3c(c21)/C(=C/c1ccccc1C#N)Oc1ccc(F)cc1-3",
    "Efficacy (%)": 62
  },
  {
    "Mol": "CC1=CC(C)(C)Nc2ccc3c(c21)/C(=C/c1ccccc1C)Oc1ccccc1-3",
    "Efficacy (%)": 45
  }
]

Challenge: Supply Efficacy value. Item: CC1=CC(C)(C)Nc2ccc3c(c21)/C(=C/c1ccccc1)Oc1c(F)cccc1-3
Response given: 45

Challenge: Respond only with Efficacy recorded for CC1=CC(C)(C)Nc2ccc3c(c21)/C(=C/c1ccccc1C)Oc1c(F)cccc1-3
Response given: 43

Challenge: Name the recorded Efficacy of the item CC1=CC(C)(C)Nc2ccc3c(c21)/C(=C/c1ccc(F)cc1)Oc1c(F)cccc1-3 in your answer.
Response given: 36

====

System: Estrogen receptor (Homo sapiens, UniProt Q92731+P03372) | Read-out: IC50
Returns: string containing the number followed by the unit.

[
  {
    "Mol": "CC1=CC(C)(C)Nc2ccc3c(c21)/C(=C/c1ccco1)Oc1ccc(F)cc1-3",
    "Test System": "Estrogen receptor (Homo sapiens, UniProt Q92731+P03372)",
    "IC50": "1.273 µM"
  },
  {
    "Mol": "CC1=CC(C)(C)Nc2ccc3c(c21)/C(=C/c1ccsc1)Oc1ccc(F)cc1-3",
    "Test System": "Estrogen receptor (Homo sapiens, UniProt Q92731+P03372)",
    "IC50": "3.488 µM"
  },
  {
    "Mol": "CC1=CC(C)(C)Nc2ccc3c(c21)/C(=C/c1ccccc1C)Oc1c(F)cccc1-3",
    "Test System": "Estrogen receptor (Homo sapiens, UniProt Q92731+P03372)",
    "IC50": "2.443 µM"
  },
  {
    "Mol": "CC1=CC(C)(C)Nc2ccc3c(c21)/C(=C/c1ccncc1C)Oc1ccc(F)cc1-3",
    "Test System": "Estrogen receptor (Homo sapiens, UniProt Q92731+P03372)",
    "IC50": "1.149 µM"
  }
]

# ---- query compound ----
Challenge: # return IC50 of COc1ccccc1/C=C1\Oc2ccc(F)cc2-c2ccc3c(c21)C(C)=CC(C)(C)N3 (system: Estrogen receptor (Homo sapiens, UniProt Q92731+P03372))
Response given: 1.885 µM

====

# Test System: Mineralocorticoid receptor (Homo sapiens) (UniProt P08235)
# Sequence (whole entry): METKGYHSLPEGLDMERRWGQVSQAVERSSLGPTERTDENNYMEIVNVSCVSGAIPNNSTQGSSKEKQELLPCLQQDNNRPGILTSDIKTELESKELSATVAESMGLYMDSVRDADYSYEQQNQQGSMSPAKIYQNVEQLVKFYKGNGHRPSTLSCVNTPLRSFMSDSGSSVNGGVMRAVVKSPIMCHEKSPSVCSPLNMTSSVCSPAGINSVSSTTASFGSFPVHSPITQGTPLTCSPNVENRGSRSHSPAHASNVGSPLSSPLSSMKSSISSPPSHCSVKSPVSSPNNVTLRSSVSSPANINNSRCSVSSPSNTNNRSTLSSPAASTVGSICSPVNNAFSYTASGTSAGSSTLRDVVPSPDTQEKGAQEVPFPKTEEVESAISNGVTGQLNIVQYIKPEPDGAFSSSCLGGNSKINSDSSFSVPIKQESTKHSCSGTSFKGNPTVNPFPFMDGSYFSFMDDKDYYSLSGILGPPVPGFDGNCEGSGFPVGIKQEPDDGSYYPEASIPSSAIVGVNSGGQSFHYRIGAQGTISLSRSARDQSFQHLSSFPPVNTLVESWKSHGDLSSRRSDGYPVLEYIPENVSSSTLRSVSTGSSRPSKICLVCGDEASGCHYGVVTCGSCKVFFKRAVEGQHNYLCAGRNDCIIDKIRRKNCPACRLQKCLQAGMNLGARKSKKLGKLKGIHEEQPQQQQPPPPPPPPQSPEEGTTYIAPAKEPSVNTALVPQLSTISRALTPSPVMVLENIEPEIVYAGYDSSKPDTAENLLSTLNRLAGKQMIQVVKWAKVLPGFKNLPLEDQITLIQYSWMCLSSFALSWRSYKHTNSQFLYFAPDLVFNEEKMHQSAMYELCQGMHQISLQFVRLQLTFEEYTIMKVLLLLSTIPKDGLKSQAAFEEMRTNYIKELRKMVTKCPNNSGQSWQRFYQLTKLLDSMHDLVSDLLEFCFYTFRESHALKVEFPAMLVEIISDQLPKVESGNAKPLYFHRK
# Measurement Protocol: Agonistic efficacy against human Mineralocorticoid receptor
# Assay type: functional
Result Type: Efficacy (%)
Give the value, in units of %, as a plain number.

Use these answered entries as a reference point.
[
  {
    "Mol": "CC1=CC(C)(C)Nc2ccc3c(c21)/C(=C/c1ccccc1C)Oc1c(F)cccc1-3",
    "Test System": "Mineralocorticoid receptor (Homo sapiens) (UniProt P08235)",
    "Efficacy [%]": 70
  },
  {
    "Mol": "CC1=CC(C)(C)Nc2ccc3c(c21)/C(=C/c1ccncc1C)Oc1ccc(F)cc1-3",
    "Test System": "Mineralocorticoid receptor (Homo sapiens) (UniProt P08235)",
    "Efficacy [%]": 71
  },
  {
    "Mol": "CCc1ccccc1/C=C1\\Oc2ccc(F)cc2-c2ccc3c(c21)C(C)=CC(C)(C)N3",
    "Test System": "Mineralocorticoid receptor (Homo sapiens) (UniProt P08235)",
    "Efficacy [%]": 50
  }
]

# next compound below
Challenge: Give Efficacy only, for CC1=CC(C)(C)Nc2ccc3c(c21)/C(=C/c1ccsc1)Oc1ccc(F)cc1-3 , using Mineralocorticoid receptor (Homo sapiens) (UniProt P08235) data.
Response given: 63

====

# Test System: Progesterone receptor (Homo sapiens) (UniProt P06401)
# Sequence (whole entry): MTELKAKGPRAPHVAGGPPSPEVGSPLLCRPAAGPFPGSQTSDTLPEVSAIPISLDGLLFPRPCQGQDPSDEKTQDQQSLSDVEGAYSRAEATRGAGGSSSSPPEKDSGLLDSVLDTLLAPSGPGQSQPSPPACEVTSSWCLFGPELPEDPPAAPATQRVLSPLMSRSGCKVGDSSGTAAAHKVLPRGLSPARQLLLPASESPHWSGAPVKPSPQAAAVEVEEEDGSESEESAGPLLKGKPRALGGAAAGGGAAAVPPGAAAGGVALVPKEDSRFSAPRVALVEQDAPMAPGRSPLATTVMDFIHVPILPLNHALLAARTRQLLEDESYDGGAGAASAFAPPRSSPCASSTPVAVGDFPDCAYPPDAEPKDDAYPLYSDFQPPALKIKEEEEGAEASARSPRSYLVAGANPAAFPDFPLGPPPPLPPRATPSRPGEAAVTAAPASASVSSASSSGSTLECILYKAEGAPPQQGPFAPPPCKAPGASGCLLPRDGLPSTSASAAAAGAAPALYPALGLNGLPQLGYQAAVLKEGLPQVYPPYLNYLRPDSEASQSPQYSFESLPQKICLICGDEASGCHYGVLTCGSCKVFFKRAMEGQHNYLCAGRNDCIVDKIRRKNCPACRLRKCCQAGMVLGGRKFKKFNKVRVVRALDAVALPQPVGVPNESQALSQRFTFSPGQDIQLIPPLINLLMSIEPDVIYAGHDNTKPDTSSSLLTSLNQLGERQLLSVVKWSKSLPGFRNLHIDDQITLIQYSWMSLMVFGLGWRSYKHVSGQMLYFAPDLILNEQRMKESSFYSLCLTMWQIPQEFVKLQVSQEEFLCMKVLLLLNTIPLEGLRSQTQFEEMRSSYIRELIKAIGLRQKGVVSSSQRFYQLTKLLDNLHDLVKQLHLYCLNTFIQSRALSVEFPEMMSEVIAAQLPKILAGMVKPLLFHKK
# Measurement Protocol: Percent agonistic effect towards human progesterone receptor in CV-1 cells
# Format: functional, cell-based
# Efficacy per entry
Answer by giving the amount and then stating its unit.

// known answers, use as guide
[
  {
    "Mol": "CC1=CC(C)(C)Nc2ccc3c(c21)/C(=C/c1ccccc1C(C)C)Oc1ccc(F)cc1-3",
    "Result Type": "Efficacy",
    "Reported Result": "156%"
  },
  {
    "Mol": "CC1=CC(C)(C)Nc2ccc3c(c21)/C(=C/c1ccccc1N(C)C)Oc1ccc(F)cc1-3",
    "Result Type": "Efficacy",
    "Reported Result": "172%"
  },
  {
    "Mol": "CC1=CC(C)(C)Nc2ccc3c(c21)/C(=C/c1ccccc1C(F)(F)F)Oc1ccc(F)cc1-3",
    "Result Type": "Efficacy",
    "Reported Result": "127%"
  },
  {
    "Mol": "CC1=CC(C)(C)Nc2ccc3c(c21)/C(=C/c1ccco1)Oc1ccc(F)cc1-3",
    "Result Type": "Efficacy",
    "Reported Result": "138%"
  },
  {
    "Mol": "CC1=CC(C)(C)Nc2ccc3c(c21)/C(=C/c1ccccc1C)Oc1ccc(F)cc1-3",
    "Result Type": "Efficacy",
    "Reported Result": "178%"
  }
]

Challenge: Look up Efficacy of COc1ccccc1/C=C1\Oc2ccc(F)cc2-c2ccc3c(c21)C(C)=CC(C)(C)N3 and report it.
Response given: 154%

Challenge: Read off the recorded Efficacy for CC1=CC(C)(C)Nc2ccc3c(c21)/C(=C/c1ccccc1C)Oc1c(F)cccc1-3
Response given: 163%

Challenge: Quickly give me recorded Efficacy for CC1=CC(C)(C)Nc2ccc3c(c21)/C(=C/c1ccncc1)Oc1ccc(F)cc1-3
Response given: 105%

Challenge: Give Efficacy for CC1=CC(C)(C)Nc2ccc3c(c21)/C(=C/c1ccccc1OC(F)(F)F)Oc1ccc(F)cc1-3
Response given: 136%

Reference source for all entries: ChEMBL document CHEMBL1145087
